- PROTOCOL_DESCRIPTION: Half life in dog at 0.5 mg/kg, iv
- Assay type: ADME, organism-based, Canis lupus familiaris
- Design: dose 0.5 mg/kg, route intravenous
- EXPERIMENTAL_PARAMETERS: in vivo
READOUT_NAME: half-life

Qu. In one line, give reported half-life of the entry O=C(O)CCNC(=O)c1ccc(C(Nc2cnn(-c3ccc(C(F)(F)F)cc3)c2)C2CCCC2)cc1 (single isomer, unassigned; (-)) .
Ans. 1.8 h

Qu. In one line, give reported half-life of the entry CCCC(Oc1cnn(-c2ccc(C(F)(F)F)cc2)c1)c1ccc(C(=O)NCCC(=O)O)cc1 (single isomer, unassigned; (-)) .
Ans. 2.3 h

* * *

Please respond with reported CLint scaled for every item in the list.
- PROTOCOL_DESCRIPTION: Apparent intrinsic clearance in rat liver microsomes
- Type: ADME, Microsome
- EXPERIMENTAL_PARAMETERS: read-out: CLH

Qu. In one line, give reported CLint scaled of the entry CCCC(Nc1cnn(-c2ccc(C(F)(F)F)cc2)c1)c1ccc(C(=O)NCCC(=O)O)cc1 (single isomer, unassigned; (-)) .
Ans. < 25 mL/min/kg

Qu. In one line, give reported CLint scaled of the entry O=C(O)CCNC(=O)c1ccc(C(CCC(F)(F)F)Nc2cnn(-c3ccc(C(F)(F)F)cc3)c2)cc1 (single isomer, unassigned; (+)) .
Ans. < 25 mL/min/kg

Qu. In one line, give reported CLint scaled of the entry O=C(O)CCNC(=O)c1ccc(C(Nc2cnn(-c3ccc(C(F)(F)F)cc3)c2)C2CCCC2)cc1 (single isomer, unassigned; (+)) .
Ans. < 25 mL/min/kg

Qu. In one line, give reported CLint scaled of the entry CCCC(Oc1cnn(-c2ccc(C(F)(F)F)cc2)c1)c1ccc(C(=O)NCCC(=O)O)cc1 (single isomer, unassigned; (-)) .
Ans. < 25 mL/min/kg

* * *

- PROTOCOL_DESCRIPTION: Volume of distribution at steady state in Wistar-Han rat at 1 mg/kg, iv and 5 mg/kg, po
- Format: ADME, organism-based
- EXPERIMENTAL_PARAMETERS: Wistar-Han, in vivo, read-out: Vdss
Please respond with reported Vd for every item in the list.
Include the unit right after the number.

Qu. In one line, give reported Vd of the entry O=C(O)CCNC(=O)c1ccc(C(CCC(F)(F)F)Nc2cnn(-c3ccc(C(F)(F)F)cc3)c2)cc1 (single isomer, unassigned; (+)) .
Ans. 0.615 L/kg

Qu. In one line, give reported Vd of the entry CCCC(Nc1cnn(-c2ccc(C(F)(F)F)cc2)c1)c1ccc(C(=O)NCCC(=O)O)cc1 (single isomer, unassigned; (+)) .
Ans. 1.13 L/kg

Qu. In one line, give reported Vd of the entry CCCC(Oc1cnn(-c2ccc(C(F)(F)F)cc2)c1)c1ccc(C(=O)NCCC(=O)O)cc1 (single isomer, unassigned; (-)) .
Ans. 1.17 L/kg

* * *

- PROTOCOL_DESCRIPTION: Plasma concentration in Wistar-Han rat at 30 mg/kg, iv after 11 mins
- Type: ADME, organism-based
- Set-up: dose 30 mg/kg, route intravenous
READOUT_NAME: concentration at 11 min (ng/mL)
Express your answer in ng/mL, writing the number without its unit.

Qu. In one line, give reported concentration at 11 min of the entry O=C(O)CCNC(=O)c1ccc(C(Nc2cnn(-c3ccc(C(F)(F)F)cc3)c2)C2CCCC2)cc1 (single isomer, unassigned; (+)) .
Ans. 21000
